Numbers sourced from the supplement of paper PMC6555819.

Tested on: THRa homodimer (NR concentration 90 nM)
Assay: PBM binding z-score (relative to random genomic background probes); higher = stronger binding; sequences stand for … in GC…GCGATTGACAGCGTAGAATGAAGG
Below, each entry is listed with its recorded PBM binding z-score.

Please review the following examples before continuing.
| recordSequence | testTarget | PBM binding z-score |
| --- | --- | --- |
| GCTCGGAGGACAAGGTCAGTGCTTTGTCCGTAGA | THRa homodimer (NR concentration 90 nM) | 1.49 |
| ACTAGCAGGCCAAGGGACACTCAAGATTAGTCCG | THRa homodimer (NR concentration 90 nM) | -0.143 |
| GATACAGGGTCAAGGCCTGAGTACGCGTATTGAT | THRa homodimer (NR concentration 90 nM) | 0.931 |
| CGAACGAGGGCATGAGTTGATAGCTAATGCCGAT | THRa homodimer (NR concentration 90 nM) | -0.207 |
| TATACAGGGTCAAAGGCCATAGTACGAATGTCGA | THRa homodimer (NR concentration 90 nM) | 0.843 |
| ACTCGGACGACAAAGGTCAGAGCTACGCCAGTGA | THRa homodimer (NR concentration 90 nM) | -0.0567 |

# evaluate next
The value of PBM binding z-score measured for the sequence `ATCTCTAGGTAAAGATAGTTGAGTGAATGCAAAT` turned out to be 0.0736

* * *

System: RXRa homodimer (NR concentration 180 nM)
Assay: PBM binding z-score (relative to random genomic background probes); higher = stronger binding; sequences stand for … in GC…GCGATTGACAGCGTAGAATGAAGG
readoutType: PBM binding z-score
Just the number, please.

Recorded results for 2 sequences are shown here.
| recordSequence | measurement |
| --- | --- |
| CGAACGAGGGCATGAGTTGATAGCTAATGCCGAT | 0.984 |
| CTCGAACGGTCGTGCTCAGGTGAGTATACCAAAC | -0.088 |

Consider `ATCGAAAGGTCGAAGAGGTGAGTATACACCGTTT` . Its measured PBM binding z-score is 4.41

The reported PBM binding z-score of the sequence `TGTCAAAGATCAAAGGTAACGTAAGTATCCACAC` was 2.36

`GATACAGGGTTAAGGCCAGAGTACGCGTATTGAT` yielded PBM binding z-score of 1.76

Sure, the documented PBM binding z-score for `AGAATGAGGTTACCAAAGAGCAGGGAAACGCTTG` is 2.24

* * *

System: LXRb:RXRa (NR concentration 270 nM, RXRa partner concentration 90 nM)
Assay: PBM binding z-score (relative to random genomic background probes); higher = stronger binding; sequences stand for … in GC…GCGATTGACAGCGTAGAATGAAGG
This listing pairs sequences with measured PBM binding z-score.
Would you mind answering with just the numeric figure?

Example entries and their recorded answers appear below.
| recordSequence | PBM binding z-score |
| --- | --- |
| TAGCATAGGTCAGATCGGGCCAGTATACGCTATA | 2.08 |
| AGAAGGAGGGCACGCTGAGTTGATAGCAGAGTAG | 0.551 |
| TCGAGTAAGTTAGTCGGGGCATTCAGCCAACATA | -0.128 |

The sequence listed as `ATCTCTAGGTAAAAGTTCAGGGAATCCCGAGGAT` shows PBM binding z-score equal to 1.12

Sample `TCGAGTAGGTCACCAATGGGGCATTCAGCTTTCT` ; PBM binding z-score observed: 2.79

get_value(item= `CGTCCAAGGTCAATGCTAGGTCAGTTAAAGCATT` , readout=PBM binding z-score) returns 4.57

`AATACAGGGTCATCGTAGGCCAGATTACGCACAG` has a reported PBM binding z-score of 4.95

response.value for `TCTGCTAGCTCAACGATGGTCAGCTAATCTGCTA` (field: PBM binding z-score) = -1

Looking up `TAGCCTAGGTCATTCAGGGCCCAGTATAGAAAGC` , I see its PBM binding z-score listed as 2.37

Short answer for `GCTAGCAGGCCATTTGGGTCACTCTATGACGGGC` : PBM binding z-score was -0.351

Per the records, this sequence ( `CGTCATAGTTCAACTAAGGTAACGTAAAGCACGC` ) has PBM binding z-score equal to 2.13

Recorded result, `TAGCCTAGGTCGTGGGCCAGTATACCACGCGAAC` , PBM binding z-score: 0.0173
